# protocol.summary: Inhibitory activity against recombinant human secretory phospholipase A2 (s-PLA2) by phosphatidylcholine/deoxycholate assay (PC/DOC).
pIC50: −log10 of the molar value.
parameter.measured: pIC50

Here are 2 compounds together with their reported answers.
COc1c(C(=O)C(N)=O)c2c(OCC(=O)O)cccn2c1Cc1ccccc1-c1ccccc1    7.89
CCc1c(C(=O)C(N)=O)c2c(OCC(=O)OC)cccn2c1Cc1cccc(-c2ccccc2)c1    8.38

P: COC(=O)COc1cccn2c(Cc3cccc4ccccc34)c(C3CC3)c(C(=O)C(N)=O)c12
Q: CCCCC[C@H]1CCCC(Cc2c(CC)c(C(=O)C(N)=O)c3c(OCC(=O)O)cccn23)C1 (stereo not given in full)
R: CCc1c(C(=O)C(N)=O)c2c(OCC(=O)O)cccn2c1Cc1cccc(C(F)(F)F)c1
S: COC(=O)COc1cccn2c(Cc3ccccc3-c3ccccc3)c(C)c(C(=O)C(N)=O)c12
# input Sort (4 compounds) by pIC50: min first. The labels, placed in the requested order, form the answer.
# output P, Q, R, S

a: CCCCc1ccc(Cc2c(CC)c(C(=O)C(N)=O)c3c(OCC(=O)O)cccn23)cc1
b: CCc1c(C(=O)C(N)=O)c2c(OCC(=O)O)cccn2c1Cc1cccs1
c: CCc1c(C(=O)C(N)=O)c2c(OCC(=O)O)cccn2c1Cc1ccccc1Cc1ccccc1
# input Ascending by pIC50, please: list the compounds accordingly. Response field: labels, in requested order.
# output b, a, c
(b: 7.89, a: 8.30, c: 8.89)
